Tested on: ACHN
Assay: NCI tumour cell line growth inhibition, 48 h
Calls of active or inactive are those of the source. Cut-off read from the data, not from the text of the source: active = GI50 up to about 1.1 µM and inactive = higher.
Hi there, use one of these labels in your reply, thanks! active, inactive

See these solved cases before continuing.
{"compound": "O=C1OC(c2ccc(O)c(F)c2)(c2ccc(O)c(F)c2)c2cccc3cccc1c23", "className": "inactive"}
{"compound": "NCCSC1(O)C(=O)c2ccccc2-c2ccccc21 (stereo not given)", "className": "active"}
{"compound": "CC1(C)C2CC(=O)C1(C)C(OCc1ccccc1)C2 (stereo not given)", "className": "inactive"}
{"compound": "Nc1nc2[nH]cc(CCc3ccc(C(=O)N[C@@H](CCC(=O)O)C(=O)O)cc3)c2c(=O)[nH]1 [PEMETREXED]", "className": "active"}

Would you mind telling me which call this test gave `Cc1cccc(C2=C/C(=C(\SS/C(C(=O)c3ccc(OCC(=O)O)c(Cl)c3Cl)=C3\C=C(c4cccc(C)c4)SS3)C(=O)c3ccc(OCC(=O)O)c(Cl)c3Cl)SS2)c1` ?
inactive

Would you mind telling me which call this test gave `COc1cc(OC)cc(C(=O)NC2=C(Cl)C(=O)c3ccccc3C2=O)c1` ?
active

Would you mind telling me which call this test gave OC1[C@H]([C@H]2CCCC[C@@H]2O)CCC[C@@H]1[C@@H]1CCCC[C@H]1O (stereo not given in full) ?
inactive

Would you mind telling me which call this test gave Cc1cc2c(cc1C)C(=O)C1(C2)Cc2c(ccc(C)c2C)C1=O (stereo not given) ?
inactive

Would you mind telling me which call this test gave `Nc1nc(N)c2c(-c3ccccc3)ccnc2n1` ?
inactive

Would you mind telling me which call this test gave O=C(NN1C(=O)C(Cl)C1c1ccccc1Cl)c1ccccc1O (stereo not given) ?
inactive
